- TEST METHOD NOTES: NCI Yeast Anticancer Drug Screen. Data for the cln2 rad14 strain (AID 165);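 further: 0% = growth equal to vehicle treated cultures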
- TEST CONTEXT: S. cerevisiae cln2 rad14 strain, at 50.0 µM, stronger effect = higher value
About 79,000 compounds went through this panel and 15% of them were active in at least one assay; those are over-represented in the sample as a whole.
EXPERIMENTAL ENDPOINT: growth inhibition (%)
Report as a plain number; the unit % is understood.

Input Nc1ccc2c(c1)Cc1cc(N)c(N)cc1-2 . Output growth inhibition: -18.7

So, CC(=O)NC(CCC(=O)c1ccccc1)C(=O)O (stereo not drawn) ? Its growth inhibition was 5.05

Briefly, growth inhibition measured for COc1ccc(C(=O)/C(=N/Nc2ccccc2)c2ccc(OC)cc2)cc1 : 2

Looking up Cn1c(=O)c2[nH]c(CCCCC(=O)O)nc2n(C)c1=O , I found its growth inhibition recorded as -20.9

Value of growth inhibition reported for the compound NC(=S)N/N=C/c1ccc(OC(=O)COc2ccc(Cl)cc2)cn1 is -1.25

More entries:
Briefly, growth inhibition measured for OC(CBr)CCBr (stereo not drawn) : 3.45

Memo: C=C1C(=O)C2CCC1C2 (stereo not drawn) , reported growth inhibition: -3.2

Per the records, this compound ( Nc1ccc(F)c(Cl)c1F ) has growth inhibition equal to -24.8
